Tested on: cathepsin L1 (Fasciola hepatica)
Experiment: CTSL1 protease inhibition, fluke enzyme – biochemical, QFRET, fluorogenic peptide substrate, counter-screen for PFM18AAP inhibitor project, primary screen (AID 1906)
Details: recombinant F. hepatica cathepsin L1, Z-Leu-Arg-MCA fluorescence; at 5.96 µM
About 1,500 (0.5%) of roughly 300,000 compounds were called active.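 Rule for the calls: active = inhibition above the mean of all tested compounds plus 3 SD, set per screening campaign (cut at about 17% in these data); inactive = the rest.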 Only a selection was taken, and actives are over-represented in it overall.
Would you mind answering with one of these outcomes? t = active, f = inactive

Dear all, I need the recorded test outcome for C#CCOCCOCCOCCNc1nc(N2CCN(C(=O)C([C@@H](C)CC)n3cc(C(N)COC(=O)C(F)(F)F)nn3)CC2)nc(N2CCN(C(=O)[C@H](Cc3ccc(O)cc3)n3cc(C(N)[C@H](C)CC)nn3)CC2)n1 (stereo partly drawn) , thank you.
f

So what was the verdict on COc1cccc2sc(N(CCCN(C)C)C(=O)CCS(=O)(=O)c3ccccc3)nc12 in this test?
t

Which outcome did this test record for the compound C#CCOCCOCCOCCNc1nc(N2CCN(C(=O)C([C@@H](C)CC)n3cc(C(N)COC(=O)C(F)(F)F)nn3)CC2)nc(N2CCN(C(=O)[C@H](CCCCN)n3cc(C(N)CC(C)C)nn3)CC2)n1 (stereo partly drawn) ?
t
